- Test system: Citrobacter freundii 1982
Threshold check on MIC: strictly below 8 µg/mL is 1 (yes); on or above 8 µg/mL is 0 (no).

>  <Compound>
CC(=O)N1C[C@H]2CC(/C=C3\CCN(C4CC4)C3=O)=C(C(=O)O)N3C(=O)[C@@H]1[C@@H]23 [Example 29]

>  <Discrete Label>
1 (yes)

$$$$
>  <Compound>
CC(=O)N1C[C@H]2CC(/C=C/c3cnc4ccccc4c3)=C(C(=O)O)N3C(=O)[C@@H]1[C@@H]23 [Example 63]

>  <Discrete Label>
0 (no)

$$$$
>  <Compound>
CC(=O)N1C[C@H]2CC(/C=C3\CCN(CC(C)C)C3=O)=C(C(=O)O)N3C(=O)[C@@H]1[C@@H]23 [Example 28]

>  <Discrete Label>
1 (yes)

$$$$
>  <Compound>
O=C(O)C1=C(/C=C/c2ccc(O)cc2)C[C@@H]2CN[C@@H]3C(=O)N1[C@H]23 [Example 52]

>  <Discrete Label>
0 (no)

$$$$
>  <Compound>
CC(=O)N1C[C@H]2CC(/C=C/c3ccc4ccccc4n3)=C(C(=O)O)N3C(=O)[C@@H]1[C@@H]23 [Example 61]

>  <Discrete Label>
0 (no)

$$$$
>  <Compound>
CC(=O)N1C[C@H]2CC(/C=C/c3ccccn3)=C(C(=O)O)N3C(=O)[C@@H]1[C@@H]23 [Example 58]

>  <Discrete Label>
1 (yes)

$$$$
>  <Compound>
O=C(O)C1=C(/C=C2\CCN(Cc3cccs3)C2=O)C[C@@H]2CN[C@@H]3C(=O)N1[C@H]23 [Example 16]

>  <Discrete Label>
0 (no)

$$$$
>  <Compound>
O=C(O)C1=C(/C=C2\CCN(c3cccnc3)C2=O)C[C@@H]2CN(C(=O)C(F)(F)F)[C@@H]3C(=O)N1[C@H]23 [Example 38]

>  <Discrete Label>
0 (no)

$$$$
>  <Compound>
CC(=O)N1C[C@H]2CC(/C=C3\CCN(Cc4cccs4)C3=O)=C(C(=O)O)N3C(=O)[C@@H]1[C@@H]23 [Example 27]

>  <Discrete Label>
1 (yes)

$$$$
>  <Compound>
O=C(O)C1=C(/C=C/c2ccncc2)C[C@@H]2CN[C@@H]3C(=O)N1[C@H]23 [Example 51]

>  <Discrete Label>
0 (no)

$$$$
>  <Compound>
CC(=O)N1C[C@H]2CC(/C=C/c3ccccc3)=C(C(=O)O)N3C(=O)[C@@H]1[C@@H]23 [Example 57]

>  <Discrete Label>
0 (no)

$$$$
>  <Compound>
O=C(O)C1=C(/C=C/c2ccc3ccccc3n2)C[C@@H]2CN[C@@H]3C(=O)N1[C@H]23 [Example 54]

>  <Discrete Label>
0 (no)

$$$$
>  <Compound>
CC(=O)N1C[C@H]2CC(/C=C3\CCN(c4ccc[n+](Cc5ccccc5)c4)C3=O)=C(C(=O)[O-])N3C(=O)[C@@H]1[C@@H]23 [Example 39]

>  <Discrete Label>
1 (yes)

$$$$
>  <Compound>
CC(=O)N1C[C@H]2CC(/C=C3\CCN(c4ccc(O)cc4)C3=O)=C(C(=O)O)N3C(=O)[C@@H]1[C@@H]23 [Example 24]

>  <Discrete Label>
1 (yes)

$$$$
>  <Compound>
CC(=O)N1C[C@H]2CC(/C=C/c3cccc[n+]3CC(N)=O)=C(C(=O)[O-])N3C(=O)[C@@H]1[C@@H]23 [Example 72]

>  <Discrete Label>
0 (no)

$$$$
>  <Compound>
O=C(O)C1=C(/C=C/c2ccccn2)C[C@@H]2CN[C@@H]3C(=O)N1[C@H]23 [Example 50]

>  <Discrete Label>
0 (no)

$$$$
>  <Compound>
CC(=O)N1C[C@H]2CC(/C=C/c3ccc[n+](Cc4ccc(OC(F)(F)F)cc4)c3)=C(C(=O)[O-])N3C(=O)[C@@H]1[C@@H]23 [Example 71]

>  <Discrete Label>
0 (no)

$$$$
>  <Compound>
CCOC(=O)N1CCC(N2CC/C(=C\C3=C(C(=O)O)N4C(=O)[C@@H]5[C@H]4[C@H](C3)CN5C(C)=O)C2=O)CC1 [Example 32]

>  <Discrete Label>
0 (no)

$$$$
>  <Compound>
O=C(O)C1=C(/C=C/c2ccccc2)C[C@@H]2CN[C@@H]3C(=O)N1[C@H]23 [Example 49]

>  <Discrete Label>
0 (no)

$$$$
>  <Compound>
CC(=O)N1C[C@H]2CC(/C=C3\CCN(c4ccc[n+](CC(N)=O)c4)C3=O)=C(C(=O)[O-])N3C(=O)[C@@H]1[C@@H]23 [Example 40]

>  <Discrete Label>
1 (yes)

$$$$
>  <Compound>
CC(=O)N1C[C@H]2CC(/C=C/c3ccncc3)=C(C(=O)O)N3C(=O)[C@@H]1[C@@H]23 [Example 59]

>  <Discrete Label>
0 (no)

$$$$
>  <Compound>
O=C(O)C1=C(/C=C/c2cccnc2)C[C@@H]2CN[C@@H]3C(=O)N1[C@H]23 [Example 53]

>  <Discrete Label>
0 (no)

$$$$
